- Test system: MDA-MB-231 complex spheroids, growth inhibition
- Protocol: Anticancer human tumor MDA-MB-231 cell line growth inhibition [Asc]; active = viability on the fitted dose curve at most 10% of control; inactive = the rest;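 note: spheroids exposed to compounds for 7 days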
- Assay conditions: second compound 10 µM; first compound 3.16 µM
Labels: True = active, False = inactive

>  <Compound>
C#Cc1c(F)ccc2cc(O)cc(-c3ncc4c(N5CC6CCC(C5)N6)nc(OCC56CCCN5CC(F)C6)nc4c3F)c12 (centres undefined) + Cc1c(S(C)(=O)=O)c(-c2cc(F)cc(N3CCN(c4ccc(NS(=O)(=O)c5ccc(NC(CCN6CCC(C(=O)OCCCP(=O)(O)O)CC6)CSc6ccccc6)c(S(=O)(=O)C(F)(F)F)c5)cc4)CC3)c2)c(-c2ccc(Cl)cc2)n1C(C)C

>  <Group>
False

$$$$
>  <Compound>
C=CC(=O)N1CCN(c2nc(=O)n(-c3c(C)ccnc3C(C)C)c3nc(-c4c(O)cccc4F)c(F)cc23)C(C)C1 (centres undefined) + Cc1c(S(C)(=O)=O)c(-c2cc(F)cc(N3CCN(c4ccc(NS(=O)(=O)c5ccc(NC(CCN6CCC(C(=O)OCCCP(=O)(O)O)CC6)CSc6ccccc6)c(S(=O)(=O)C(F)(F)F)c5)cc4)CC3)c2)c(-c2ccc(Cl)cc2)n1C(C)C

>  <Group>
False

$$$$
>  <Compound>
O=C(c1cc(Cc2n[nH]c(=O)c3ccccc23)ccc1F)N1CCN(C(=O)C2CC2)CC1 + Cc1c(S(C)(=O)=O)c(-c2cc(F)cc(N3CCN(c4ccc(NS(=O)(=O)c5ccc(NC(CCN6CCC(C(=O)OCCCP(=O)(O)O)CC6)CSc6ccccc6)c(S(=O)(=O)C(F)(F)F)c5)cc4)CC3)c2)c(-c2ccc(Cl)cc2)n1C(C)C

>  <Group>
False

$$$$
>  <Compound>
C=C(F)C(=O)N1CCN(c2nc(OCC3CCCN3C)nc3c2CCN(c2cccc4cccc(Cl)c24)C3)CC1CC#N (centres undefined) + Cc1c(S(C)(=O)=O)c(-c2cc(F)cc(N3CCN(c4ccc(NS(=O)(=O)c5ccc(NC(CCN6CCC(C(=O)OCCCP(=O)(O)O)CC6)CSc6ccccc6)c(S(=O)(=O)C(F)(F)F)c5)cc4)CC3)c2)c(-c2ccc(Cl)cc2)n1C(C)C

>  <Group>
True

$$$$

###

Entries annotated with measured viability, T/C
- Test system: MDA-MB-231 complex spheroids, growth inhibition
- Protocol: Anticancer human tumor MDA-MB-231 cell line growth inhibition [Asc];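 note: spheroids exposed to compounds for 7 days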
- Assay conditions: second compound 0.1 µM; first compound 0.0316 µM; hits give low values

>  <Molecule>
Cn1ncnc1[C@H]1c2n[nH]c(=O)c3cc(F)cc(c23)N[C@@H]1c1ccc(F)cc1 + Cc1c(S(C)(=O)=O)c(-c2cc(F)cc(N3CCN(c4ccc(NS(=O)(=O)c5ccc(NC(CCN6CCC(C(=O)OCCCP(=O)(O)O)CC6)CSc6ccccc6)c(S(=O)(=O)C(F)(F)F)c5)cc4)CC3)c2)c(-c2ccc(Cl)cc2)n1C(C)C

>  <Target system>
MDA-MB-231 complex spheroids, growth inhibition

>  <viability, T/C [%]>
87.8

$$$$
>  <Molecule>
Cn1ncnc1[C@H]1c2n[nH]c(=O)c3cc(F)cc(c23)N[C@@H]1c1ccc(F)cc1 + CNC(C)C(=O)NC1CN(S(=O)(=O)c2cccc(S(=O)(=O)N3CCC4CCC(C(=O)NC(c5ccccc5)c5ccccc5)N4C(=O)C(NC(=O)C(C)NC)C3)c2)CCC2CCC(C(=O)NC(c3ccccc3)c3ccccc3)N2C1=O

>  <Target system>
MDA-MB-231 complex spheroids, growth inhibition

>  <viability, T/C [%]>
1.34

$$$$
>  <Molecule>
CCN1CCN(Cc2ccc(Nc3ncc(F)c(-c4cc(F)c5nc(C)n(C(C)C)c5c4)n3)nc2)CC1 + Cc1c(S(C)(=O)=O)c(-c2cc(F)cc(N3CCN(c4ccc(NS(=O)(=O)c5ccc(NC(CCN6CCC(C(=O)OCCCP(=O)(O)O)CC6)CSc6ccccc6)c(S(=O)(=O)C(F)(F)F)c5)cc4)CC3)c2)c(-c2ccc(Cl)cc2)n1C(C)C

>  <Target system>
MDA-MB-231 complex spheroids, growth inhibition

>  <viability, T/C [%]>
84

$$$$

###

- Test system: MDA-MB-231 complex spheroids, growth inhibition
- Protocol: Anticancer human tumor MDA-MB-231 cell line growth inhibition [Asc];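 note: spheroids exposed to compounds for 7 days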
- Assay conditions: second compound 3.16 µM; first compound 0.316 µM; hits give low values

>  <Compound>
COc1c(OCCCN2CCOCC2)ccc2c3n(c(=NC(=O)c4cnc(N)nc4)nc12)CCN3 + Cc1c(S(C)(=O)=O)c(-c2cc(F)cc(N3CCN(c4ccc(NS(=O)(=O)c5ccc(NC(CCN6CCC(C(=O)OCCCP(=O)(O)O)CC6)CSc6ccccc6)c(S(=O)(=O)C(F)(F)F)c5)cc4)CC3)c2)c(-c2ccc(Cl)cc2)n1C(C)C

>  <Unit annotation>
%

>  <viability, T/C>
12.1

$$$$
>  <Compound>
C=C(F)C(=O)N1CCN(c2nc(OCC3CCCN3C)nc3c2CCN(c2cccc4cccc(Cl)c24)C3)CC1CC#N (configuration not stated) + Cc1c(S(C)(=O)=O)c(-c2cc(F)cc(N3CCN(c4ccc(NS(=O)(=O)c5ccc(NC(CCN6CCC(C(=O)OCCCP(=O)(O)O)CC6)CSc6ccccc6)c(S(=O)(=O)C(F)(F)F)c5)cc4)CC3)c2)c(-c2ccc(Cl)cc2)n1C(C)C

>  <Unit annotation>
%

>  <viability, T/C>
94.9

$$$$

###

- Test system: MDA-MB-231 complex spheroids, growth inhibition
- Protocol: Anticancer human tumor MDA-MB-231 cell line growth inhibition [Asc];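 note: spheroids exposed to compounds for 7 days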
- Assay conditions: second compound 3 µM; first compound 3.16 µM; hits give low values
Entries annotated with measured viability, T/C

>  <Compound>
C=C(F)C(=O)N1CCN(c2nc(OCC3CCCN3C)nc3c2CCN(c2cccc4cccc(Cl)c24)C3)CC1CC#N (centres undefined) + CCN1C(C(=O)NC23CCC(C(=O)O)(CC2)CC3)C(c2cccc(Cl)c2F)C2(C(=O)Nc3cc(Cl)ccc32)C12CCCCC2

>  <viability, T/C, %>
37.7

$$$$
>  <Compound>
O=C(c1cc(Cc2n[nH]c(=O)c3ccccc23)ccc1F)N1CCN(C(=O)C2CC2)CC1 + CCN1C(C(=O)NC23CCC(C(=O)O)(CC2)CC3)C(c2cccc(Cl)c2F)C2(C(=O)Nc3cc(Cl)ccc32)C12CCCCC2

>  <viability, T/C, %>
86.7

$$$$
>  <Compound>
C=CC(=O)N1CCN(c2nc(=O)n(-c3c(C)ccnc3C(C)C)c3nc(-c4c(O)cccc4F)c(F)cc23)C(C)C1 (centres undefined) + CCN1C(C(=O)NC23CCC(C(=O)O)(CC2)CC3)C(c2cccc(Cl)c2F)C2(C(=O)Nc3cc(Cl)ccc32)C12CCCCC2

>  <viability, T/C, %>
115

$$$$
>  <Compound>
C#Cc1c(F)ccc2cc(O)cc(-c3ncc4c(N5CC6CCC(C5)N6)nc(OCC56CCCN5CC(F)C6)nc4c3F)c12 (centres undefined) + CCN1C(C(=O)NC23CCC(C(=O)O)(CC2)CC3)C(c2cccc(Cl)c2F)C2(C(=O)Nc3cc(Cl)ccc32)C12CCCCC2

>  <viability, T/C, %>
43.5

$$$$

###

- System: MDA-MB-231 complex spheroids, growth inhibition
- Protocol: Anticancer human tumor MDA-MB-231 cell line growth inhibition [Asc]; active means viability on the fitted dose curve at most 10% of control; inactive means the rest;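 note: spheroids exposed to compounds for 7 days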
- Assay conditions: second compound 0.03 µM; first compound 10 µM
Labels: 1 for active, -1 for inactive

>  <Compound>
C=CC(=O)N1CCN(c2nc(=O)n(-c3c(C)ccnc3C(C)C)c3nc(-c4c(O)cccc4F)c(F)cc23)C(C)C1 (centres undefined) + CCN1C(C(=O)NC23CCC(C(=O)O)(CC2)CC3)C(c2cccc(Cl)c2F)C2(C(=O)Nc3cc(Cl)ccc32)C12CCCCC2

>  <Group>
-1

$$$$
>  <Compound>
C=C(F)C(=O)N1CCN(c2nc(OCC3CCCN3C)nc3c2CCN(c2cccc4cccc(Cl)c24)C3)CC1CC#N (centres undefined) + CCN1C(C(=O)NC23CCC(C(=O)O)(CC2)CC3)C(c2cccc(Cl)c2F)C2(C(=O)Nc3cc(Cl)ccc32)C12CCCCC2

>  <Group>
1

$$$$
>  <Compound>
O=C(c1cc(Cc2n[nH]c(=O)c3ccccc23)ccc1F)N1CCN(C(=O)C2CC2)CC1 + CCN1C(C(=O)NC23CCC(C(=O)O)(CC2)CC3)C(c2cccc(Cl)c2F)C2(C(=O)Nc3cc(Cl)ccc32)C12CCCCC2

>  <Group>
-1

$$$$
>  <Compound>
C#Cc1c(F)ccc2cc(O)cc(-c3ncc4c(N5CC6CCC(C5)N6)nc(OCC56CCCN5CC(F)C6)nc4c3F)c12 (centres undefined) + CCN1C(C(=O)NC23CCC(C(=O)O)(CC2)CC3)C(c2cccc(Cl)c2F)C2(C(=O)Nc3cc(Cl)ccc32)C12CCCCC2

>  <Group>
-1

$$$$
